Numbers sourced from paper PMC6434079.

Record form. Attribute: pIC50. Fill in for each entry.
Here pIC50 is given on a logarithmic scale as minus log10 of the concentration in mol/L.

The observed pIC50 for O=C(O)CNC(=O)c1c(O)n(C2CCCCC2)c(=O)n(C2CCCCC2)c1=O when tested with PHD3 (Homo sapiens) stands at 8.10

The observed pIC50 for O=C(O)CNC(=O)c1nc(Cl)c2ccccc2c1O when tested with PHD3 (Homo sapiens) stands at 7.68

The observed pIC50 for N#Cc1cn(-c2c[nH]n(-c3cc(N4CC(F)(F)C4)ncn3)c2=O)nn1 when tested with PHD3 (Homo sapiens) stands at 7.92

The observed pIC50 for O=C(O)c1cnn(-c2nc3cc(C(F)(F)F)c(Cl)cc3[nH]2)c1 when tested with PHD3 (Homo sapiens) stands at 7.60

====

Target: PHD1 (Homo sapiens)
Sequence (Q96KS0 163-403): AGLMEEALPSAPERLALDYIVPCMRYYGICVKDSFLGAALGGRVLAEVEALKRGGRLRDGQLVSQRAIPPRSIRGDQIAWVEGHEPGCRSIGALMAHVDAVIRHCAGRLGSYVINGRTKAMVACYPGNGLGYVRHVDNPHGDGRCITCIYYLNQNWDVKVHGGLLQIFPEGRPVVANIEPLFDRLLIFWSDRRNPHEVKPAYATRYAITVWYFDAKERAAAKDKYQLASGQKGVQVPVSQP
Assay: PHD1 IC50 determination (LC/MS/MS, selectivity screening)
Type: biochemical
Record form. Attribute: pIC50. Fill in for each entry.
Here pIC50 is given on a logarithmic scale as minus log10 of the concentration in mol/L.

Entry Cc1cccnc1CN1CCC2(CC1)C(=O)N(c1ccc(-c3ccccc3)cc1)c1ccccc12 , pIC50 reported as 5.79

Entry Cc1nc(C(=O)NCC(=O)O)c(O)c2ccc(Oc3ccccc3)cc12 , pIC50 reported as 8.70

Entry O=C(NC(c1ccccc1)c1ccccc1)c1cnc(-c2cccnn2)nc1O , pIC50 reported as 7.70

Entry O=C(O)CNC(=O)c1nc(Cl)c2ccccc2c1O , pIC50 reported as 7.80

Entry O=C(O)c1cnn(-c2nc3cc(C(F)(F)F)c(Cl)cc3[nH]2)c1 , pIC50 reported as 7.96

Entry CC(C)c1nn(Cc2ccc(-c3ccc(F)cc3)cc2F)c(=O)c(C(=O)NCC(=O)O)c1O , pIC50 reported as 8.52

Entry O=C(O)CNC(=O)c1c(O)n(C2CCCCC2)c(=O)n(C2CCCCC2)c1=O , pIC50 reported as 7.82

Entry N#Cc1cn(-c2c[nH]n(-c3cc(N4CC(F)(F)C4)ncn3)c2=O)nn1 , pIC50 reported as 7.70

====

Record form. Attribute: pIC50. Fill in for each entry.
Target: FIH1 (Homo sapiens, UniProt Q9NWT6)
Sequence (Q9NWT6 whole entry): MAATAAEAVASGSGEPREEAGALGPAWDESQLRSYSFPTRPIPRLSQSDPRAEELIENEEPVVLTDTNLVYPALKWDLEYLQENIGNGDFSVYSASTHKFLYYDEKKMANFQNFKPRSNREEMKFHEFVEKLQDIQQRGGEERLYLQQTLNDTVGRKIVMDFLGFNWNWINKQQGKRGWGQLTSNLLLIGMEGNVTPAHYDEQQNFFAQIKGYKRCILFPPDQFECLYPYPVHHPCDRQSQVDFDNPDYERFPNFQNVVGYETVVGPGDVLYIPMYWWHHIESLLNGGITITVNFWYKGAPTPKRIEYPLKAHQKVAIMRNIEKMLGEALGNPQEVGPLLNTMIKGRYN
Here pIC50 is given on a logarithmic scale as minus log10 of the concentration in mol/L.

Entry O=C(NC(c1ccccc1)c1ccccc1)c1cnc(-c2cccnn2)nc1O [Compound 8] , pIC50 reported as 5.01

Entry O=C(O)CNC(=O)C(=O)O [Compound 6] , pIC50 reported as 6.72

Entry O=C(O)c1cnn(-c2nc3cc(C(F)(F)F)c(Cl)cc3[nH]2)c1 [Compound 2] , pIC50 reported as 5.26

====

Molecular target: PHD1 (Homo sapiens)
Assay: PHD1 IC50 determination (LC/MS/MS, selectivity screening)
Assay type: biochemical
Details: read-out: PHD1 IC50 (μM)—60 min incubation; 60 min preincubation; 25 nM PHD1, 2 μM 2-OG
MEASURED ENDPOINT: IC50 (µM)
Write down the numeric answer in µM and omit the unit.

Entry O=C(O)CNC(=O)C(=O)O , IC50 reported as 0.851

====

Target: PHD2 (Homo sapiens)
Sequence (Q9GZT9 180-417): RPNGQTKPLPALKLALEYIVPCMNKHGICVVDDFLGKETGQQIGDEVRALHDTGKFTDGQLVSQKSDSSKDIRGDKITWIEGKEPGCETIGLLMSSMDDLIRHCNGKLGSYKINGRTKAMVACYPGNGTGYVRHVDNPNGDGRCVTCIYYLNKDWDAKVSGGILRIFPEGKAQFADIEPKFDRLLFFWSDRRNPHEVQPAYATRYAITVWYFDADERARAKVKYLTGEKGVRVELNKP
MEASURED ENDPOINT: pKi
Here pKi is given on a logarithmic scale as minus log10 of the concentration in mol/L.

The observed pKi for N#Cc1cn(-c2c[nH]n(-c3cc(N4CC(F)(F)C4)ncn3)c2=O)nn1 when tested with PHD2 (Homo sapiens) stands at 7.06
